Field: K+2/Ki. Provide a value for each of the molecules that follow.
Test: Second order rate constant ([…]) was determined
The reply should be a number in M⁻¹ s⁻¹, with the unit left off.

Lab note: CC(=[N+]=[N-])C(=O)CC[C@H](N)C(=O)O gave K+2/Ki of 333

Lab note: N[C@@H](CCC(=O)CCl)C(=O)O gave K+2/Ki of 50

Lab note: C[S+](C)CC(=O)CC[C@H](N)C(=O)O gave K+2/Ki of 5330

Lab note: N[C@@H](CCC(=O)CBr)C(=O)O gave K+2/Ki of 2500

====

System: Escherichia coli
Test: Limiting rate constant for inactivation of Escherichia coli glucosamine synthetase was determined
ENDPOINT_LABEL: K+2 (min⁻¹)
The reply should be a number in min⁻¹, with the unit left off.

Lab note: N[C@@H](CCC(=O)CCl)C(=O)O gave K+2 of 0.19

Lab note: C[S+](C)CC(=O)CC[C@H](N)C(=O)O gave K+2 of 0.12

Lab note: [N-]=[N+]=CC(=O)CC[C@H](N)C(=O)O [6-DIAZO-5-OXO-L-NORLEUCINE] gave K+2 of 0.7

Lab note: N[C@@H](CCC(=O)CBr)C(=O)O gave K+2 of 0.4

Lab note: CC(=[N+]=[N-])C(=O)CC[C@H](N)C(=O)O gave K+2 of 0.02
